Target: Growth hormone secretagogue receptor type 1 (Homo sapiens, UniProt Q92847)
Sequence (Q92847 whole entry): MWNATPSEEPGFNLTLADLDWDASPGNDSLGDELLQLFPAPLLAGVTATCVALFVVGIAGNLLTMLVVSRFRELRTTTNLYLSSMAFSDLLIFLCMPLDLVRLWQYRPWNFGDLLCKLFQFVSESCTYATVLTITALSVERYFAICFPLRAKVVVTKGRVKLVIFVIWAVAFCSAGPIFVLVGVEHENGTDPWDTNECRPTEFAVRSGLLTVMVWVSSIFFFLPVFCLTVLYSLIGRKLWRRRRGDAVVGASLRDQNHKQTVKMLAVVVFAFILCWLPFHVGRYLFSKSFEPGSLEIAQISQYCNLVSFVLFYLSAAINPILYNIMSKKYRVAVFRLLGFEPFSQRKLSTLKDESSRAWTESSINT
Assay: Inverse agonist at recombinant human GHSR1a expressed in HEK293 cells assessed as decrease in IP1 accumulation after 1 hr by IP1-d2-based HTRF assay
Format: functional, cell-based
Conditions: read-out: EC50
readout_type: EC50 (nM)
Numbers only, in nM.

Would you please look over these solved cases?
{"compound": "COC(=O)c1ccc([C@H](C)NC(=O)N(C)C2CCN(C3CCc4cc(-c5cc(C)ncn5)ccc43)CC2)c(Cl)c1Cl (stereo partly drawn)", "recorded_measurement": 96}
{"compound": "Cc1cc(-c2ccc3c(c2)CCC3N2CCC(N(C)C(=O)N[C@@H](C)c3ccc(N)c(Cl)c3Cl)CC2)ncn1 (stereo partly drawn)", "recorded_measurement": 121}
{"compound": "Cc1ccc2c(c1)CCC2N1CCC(N(C)C(=O)N[C@@H](C)c2ccc(C#CC3CC3)c(Cl)c2Cl)CC1 (stereo partly drawn)", "recorded_measurement": 117}
{"compound": "COc1ccc([C@H](C)NC(=O)N(C)C2CCN(C3CCc4cc(-n5nccn5)ccc43)CC2)c(Cl)c1Cl (stereo partly drawn)", "recorded_measurement": 70}
{"compound": "COc1ccc([C@H](C)NC(=O)N(C)C2CCN(C3CCc4cc(C)ccc43)CC2)c(Cl)c1Cl (stereo partly drawn)", "recorded_measurement": 73}

Look up EC50 for the entries below, preserving their order.
1. C[C@H](NC(=O)N(C)C1CCN(C2CCc3cc(-c4cncnc4)ccc32)CC1)c1ccc(C#CC2CC2)c(Cl)c1Cl (stereo partly drawn)
2. COc1ccc([C@H](C)NC(=O)N(C)C2CCN(C3CCc4cc(-c5cc(C)ncn5)ccc43)CC2)c(Cl)c1Cl (stereo partly drawn)
3. COc1ccc2c(c1)CCC2N1CCC(N(C)C(=O)N[C@@H](C)c2ccc(OC)c(Cl)c2Cl)CC1 (stereo partly drawn)

84.8
67
85.7
